- assay info: total protein half-life in vivo (active degradation + dilution); higher = more stable protein
- test parameters: wild type E. coli NCM3722; growth: N-lim chemostat; doubling time 12 h
In this section we review reported total protein half-life in vivo values for a set of sequences.
measured property: total protein half-life in vivo (h)

1) MRFYRPLGRISALTFDLDDTLYDNRPVILRTEREALTFVQNYHPALRSFQNEDLQRLRQAVREAEPEIYHDVTRWRFRSIEQAMLDAGLSAEEASAGAHAAMINFAKWRSRIDVPQQTHDTLKQLAKKWPLVAITNGNAQPELFGLGDYFEFVLRAGPHGRSKPFSDMYFLAAEKLNVPIGEILHVGDDLTTDVGGAIRSGMQACWIRPENGDLMQTWDSRLLPHLEISRLASLTSLI [P0ADP0]
6.7
2) MIRFEHVSKAYLGGRQALQGVTFHMQPGEMAFLTGHSGAGKSTLLKLICGIERPSAGKIWFSGHDITRLKNREVPFLRRQIGMIFQDHHLLMDRTVYDNVAIPLIIAGASGDDIRRRVSAALDKVGLLDKAKNFPIQLSGGEQQRVGIARAVVNKPAVLLADEPTGNLDDALSEGILRLFEEFNRVGVTVLMATHDINLISRRSYRMLTLSDGHLHGGVGHE [P0A9R7]
9.44
3) MSEIVIRHAETRDYEAIRQIHAQPEVYCNTLQVPHPSDHMWQERLADRPGIKQLVACIDGDVVGHLTIDVQQRPRRSHVADFGICVDSRWKNRGVASALMREMIEMCDNWLRVDRIELTVFVDNAPAIKVYKKYGFEIEGTGKKYALRNGEYVDAYYMARVK
6.73
4) MPYKTKSDLPESVKHVLPSHAQDIYKEAFNSAWDQYKDKEDRRDDASREETAHKVAWAAVKHEYAKGDDDKWHKKS [P0AE63]
6.77
